System Name: SARS-CoV spike protein receptor binding domain (RBD1) (SARS-CoV, UniProt P59594 306-527)
Test Description: ELISA, crude human minibody
Recorded Endpoint: binding result

Look up binding result for this binder: E01 human minibody (scFv-human Fc) (Fc fusion) SYELTQPPSVSVAPGETARITCGGDNIGRRHVHWYQQKPGQAPVLVIYDDSDRPSGIPDRFSGSNSGNTATLTIGRVEAGDEADYYCQVWGSSNDPHVFGTGTKLTVLSGGSTITSNNVYYTKLSSSGTQVQLQQWGAGLLKPSETLSLKCAVYGGSFSGYYWGWIRQSTGKGLEWIGEINRSGSTNYNPSLKSRVTISVDTSKNQFSLKLSSVTAADTAVYYCARGGARYYYGSGSYRSTPRPYYFDYWGQGTLVTVSS
no binding

State the recorded binding result for this entry: E08 human minibody (scFv-human Fc) (Fc fusion) scFv-Fc: SYVLTQPPSVSVAPGKTARITCGGNNIGWKSVHWYQQKPGQAPVLVVYDDSDRPSGIPERFSGSNSGNTATLTISRVEAGDEADYYCQVWDSSSDLVVFGGGTKLTVLSGGSTITSYNVYYTKLSSSGTQVQLVQSGAEVKKPGSSVKVSCKASGGTFSSYAISWVRQAPGQGLEWMGGIIPIFGTANYAQKFQGRVTITADESTSTAYMELSSLRSEDTAVYYCARASGRWLQFWHYYGMDVWGQGTTVTVSS
binds

Given H02 human minibody (scFv-human Fc) (Fc fusion) scFv-Fc: QSVVTQPPSVSAAPGQKVTISCSGSSSNIGNNYVSWYQQLPGTAPKLLIYRDTQRPSGVPDRFSGSKSGTSASLAISGLRSEDEADYYCATWDKSLSGPVFGGGTKVTVLSGGSTITSYNVYYTKLSSSGTQVQLQQSGPGLVKPSQTLSLTCAISGDSVSSNSAAWNWIRQSPSRGLEWLGRTYYRSKWYNDYAVSVKSRIIINPDTSKNQFSLQLNSVTPEDTAVYYCARQDNNPYYGLDVWGQGTTVTVSS , state its recorded binding result.
no binding
